read-out: Monokine induced gamma interferon (MIG), CXCL9 (gene 4283); experiment: BSK_3C_MIG: BioMAP Diversity Plus: 3C Assay for Monokine induced gamma interferon (MIG) Biomarker Activity (AID 2283021); conditions: primary human endothelial cells (HUVEC); actives raise or lower the signal
Activity calls are given as the source filed them. How the source made its calls: active means hit-call score of the fitted dose curve at least 0.9, where 1 is the maximum; inactive means score below 0.9.
Field 'call' accepts Y (active), N (inactive)

- COMPOUND: "CCCCCCOCCO"
  LABEL: "N"

Proceed to the following item.
What did the test return for NS(=O)(=O)c1cc2c(cc1Cl)NCNS2(=O)=O ?
N

---

target: Collagenase 3 (Homo sapiens); experiment: NVS_ENZ_hMMP13: NovaScreen (NVS) Enzymatic Assay for human Matrix Metalloproteinase-13 (MMP13) (AID 2283182)
Records with an inconclusive call do not appear. Active and inactive are the calls of the source. Rule for the calls: active = hit-call score of the fitted dose curve at least 0.9, where 1 is the maximum; inconclusive = response in the unintended direction; inactive = score below 0.9.
Listed here are molecules together with their documented AC50.

The cases that follow already have their AC50 on record.
- MOLECULE: "Cc1nc(-c2ccc3c(c2)CCN(CCC2CCC(NC(=O)/C=C/c4ccc(F)cc4)CC2)CC3)no1 (centres undefined)"
  VALUE_OBSERVED: "5.67 µM (active)"
- MOLECULE: "CC1=C(/C=C/C(C)=C/C=C/C(C)=C/CO)C(C)(C)CCC1"
  VALUE_OBSERVED: "18.2 µM (active)"
- MOLECULE: "Cc1cccc([N+](=O)[O-])c1C"
  VALUE_OBSERVED: "2.06 µM (active)"

Okay, now this molecule:
Supply AC50 value. Item: COCCOC[C@H](CC1(C(=O)NC2CCC(C(=O)O)CC2)CCCC1)C(=O)Oc1ccc2c(c1)CCC2 (some centres undefined)
17.3 µM (active)

---

read-out: Pselectin, SELP (gene 6403); assay: BSK_4H_Pselectin: BioMAP Diversity Plus: 4H Assay for Pselectin Biomarker Activity (AID 2283026); conditions: primary human endothelial cells (HUVEC); actives raise or lower the signal
Calls of active or inactive are those of the source. How the source made its calls: active means hit-call score of the fitted dose curve at least 0.9, where 1 is the maximum; inactive means score below 0.9.
Field 'call' accepts YES = active, NO = inactive

Reference set, count: 10
- SMILES_STR: "Cc1cccc(C)c1O"
  LABEL: "NO"
- SMILES_STR: "CN[C@H]1CC[C@@H](c2ccc(Cl)c(Cl)c2)c2ccc(S(N)(=O)=O)cc21"
  LABEL: "YES"
- SMILES_STR: "O=C(O)Cc1ccccc1Nc1c(Cl)cccc1Cl"
  LABEL: "NO"
- SMILES_STR: "C=CCOC(=O)c1ccccc1C(=O)OCC=C"
  LABEL: "NO"
- SMILES_STR: "CCCCCCCCCCCCCCCCCC(=O)O"
  LABEL: "NO"
- SMILES_STR: "Cc1cc(=O)[nH]c(=S)[nH]1"
  LABEL: "NO"
- SMILES_STR: "CCCc1cc(=O)[nH]c(=S)[nH]1"
  LABEL: "NO"
- SMILES_STR: "CCCCCCCC=O"
  LABEL: "NO"
- SMILES_STR: "Cc1c(C(=O)O)c(O)cc2c1C(=O)c1c(O)c([C@@H]3O[C@H](CO)[C@@H](O)[C@H](O)[C@H]3O)c(O)c(O)c1C2=O"
  LABEL: "NO"
- SMILES_STR: "Cc1ccc(C(C)C)c(O)c1"
  LABEL: "NO"

What did the test return for O=C(O)CCCCC(=O)O ?
NO

What did the test return for CNCc1cc(F)ccc1Oc1ccc(Cl)c(Cl)c1 ?
YES

What did the test return for CCCCCCC(=O)OCC ?
NO

What did the test return for O=C(OCCCCCOC(=O)c1ccccc1)c1ccccc1 ?
NO

What did the test return for CCCCCCOCCO ?
NO

What did the test return for COC(=O)c1ccc(O)cc1 ?
NO
